Molecular target: DNA topoisomerase 2-beta (Homo sapiens) (UniProt Q02880)
Sequence (Q02880 whole entry): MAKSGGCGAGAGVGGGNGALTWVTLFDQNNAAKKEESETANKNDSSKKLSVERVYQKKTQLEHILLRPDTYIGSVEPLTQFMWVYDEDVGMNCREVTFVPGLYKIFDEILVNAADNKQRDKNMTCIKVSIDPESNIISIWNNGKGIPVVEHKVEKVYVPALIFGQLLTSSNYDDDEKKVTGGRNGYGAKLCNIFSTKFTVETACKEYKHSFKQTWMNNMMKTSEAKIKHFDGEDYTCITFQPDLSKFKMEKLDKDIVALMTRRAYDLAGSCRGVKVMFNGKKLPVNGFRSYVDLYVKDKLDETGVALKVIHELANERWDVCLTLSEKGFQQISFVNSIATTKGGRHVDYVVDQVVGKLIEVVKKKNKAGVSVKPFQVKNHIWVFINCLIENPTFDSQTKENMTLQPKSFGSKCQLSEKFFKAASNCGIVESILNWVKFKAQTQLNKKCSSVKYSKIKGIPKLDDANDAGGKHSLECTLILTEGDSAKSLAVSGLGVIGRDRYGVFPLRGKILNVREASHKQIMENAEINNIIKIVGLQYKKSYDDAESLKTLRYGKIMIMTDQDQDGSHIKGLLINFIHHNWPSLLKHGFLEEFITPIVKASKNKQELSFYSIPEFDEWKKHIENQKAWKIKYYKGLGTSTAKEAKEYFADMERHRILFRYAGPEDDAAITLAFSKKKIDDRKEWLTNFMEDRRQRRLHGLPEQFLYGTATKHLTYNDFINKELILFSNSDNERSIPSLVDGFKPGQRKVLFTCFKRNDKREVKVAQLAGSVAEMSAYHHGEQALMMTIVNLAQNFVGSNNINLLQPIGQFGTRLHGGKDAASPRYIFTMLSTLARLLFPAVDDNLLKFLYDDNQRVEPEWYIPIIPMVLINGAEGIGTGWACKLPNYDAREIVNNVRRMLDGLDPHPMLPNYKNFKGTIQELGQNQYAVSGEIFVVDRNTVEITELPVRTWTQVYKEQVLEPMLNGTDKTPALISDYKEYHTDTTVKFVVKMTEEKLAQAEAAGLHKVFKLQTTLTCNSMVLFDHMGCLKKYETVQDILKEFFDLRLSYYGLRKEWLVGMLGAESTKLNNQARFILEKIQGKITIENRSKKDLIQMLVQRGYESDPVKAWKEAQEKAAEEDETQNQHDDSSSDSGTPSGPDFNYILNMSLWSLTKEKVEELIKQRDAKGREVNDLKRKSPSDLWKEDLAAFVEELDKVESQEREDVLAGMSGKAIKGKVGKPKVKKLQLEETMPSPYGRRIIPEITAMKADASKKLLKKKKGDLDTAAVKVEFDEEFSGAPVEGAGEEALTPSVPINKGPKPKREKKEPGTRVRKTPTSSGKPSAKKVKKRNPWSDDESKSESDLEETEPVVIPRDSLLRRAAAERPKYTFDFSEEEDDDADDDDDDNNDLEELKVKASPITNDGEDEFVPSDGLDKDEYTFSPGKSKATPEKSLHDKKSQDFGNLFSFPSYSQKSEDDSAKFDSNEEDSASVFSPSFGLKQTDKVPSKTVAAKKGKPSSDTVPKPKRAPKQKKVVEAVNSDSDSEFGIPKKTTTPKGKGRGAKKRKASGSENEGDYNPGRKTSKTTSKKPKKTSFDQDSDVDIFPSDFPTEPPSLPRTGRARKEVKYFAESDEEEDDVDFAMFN
Experiment: Inhibition of human topoisomerase-2beta mediated decatenation at 500 uM using kinetoplast DNA as substrate after 30 mins in presence of ATP by ethidium bromide staining-based gel electrophoresis method relative to control
Design: scale not given: the % may be the effect or the level left
property.measured: Activity (%)
API: value field is a number in %; no unit string.

Past entries and their recorded results:
compound	experimental.system	reported.result
O=c1nc(SCc2ccc(C(F)(F)F)cc2)nc(SCc2ccccc2F)[nH]1	DNA topoisomerase 2-beta (Homo sapiens) (UniProt Q02880)	0
O=c1nc(SCc2cc(F)cc(C(F)(F)F)c2)nc(SCc2ccccc2F)[nH]1	DNA topoisomerase 2-beta (Homo sapiens) (UniProt Q02880)	0

For the compound O=c1nc(SCc2cc(F)cc(C(F)(F)F)c2)nc(SCc2cccc(Cl)c2)[nH]1 , give its reported Activity.
0

For the compound COc1cc([C@@H]2c3cc4c(cc3[C@@H](O[C@@H]3O[C@@H]5CO[C@@H](C)O[C@H]5[C@H](O)[C@H]3O)[C@H]3COC(=O)[C@H]23)OCO4)cc(OC)c1O [ETOPOSIDE] , give its reported Activity.
14.7

----------
Target: DNA topoisomerase 2-beta (Homo sapiens) (UniProt Q02880)
Assay: Inhibition of human topoisomerase-2beta mediated decatenation at 125 uM using kinetoplast DNA as substrate after 30 mins in presence of ATP by ethidium bromide staining-based gel electrophoresis method relative to control
Parameters: scale not given: the % may be the effect or the level left
property.measured: Activity (%)
API: value field is a number in %; no unit string.

compound	experimental.system	property.measured	scale.unit	reported.result
O=c1nc(SCc2ccc(C(F)(F)F)cc2)nc(SCc2ccccc2F)[nH]1	DNA topoisomerase 2-beta (Homo sapiens) (UniProt Q02880)	Activity	%	0
O=c1nc(SCc2cc(F)cc(C(F)(F)F)c2)nc(SCc2cccc(Cl)c2)[nH]1	DNA topoisomerase 2-beta (Homo sapiens) (UniProt Q02880)	Activity	%	0
O=c1nc(SCc2cc(F)cc(C(F)(F)F)c2)nc(SCc2ccccc2F)[nH]1	DNA topoisomerase 2-beta (Homo sapiens) (UniProt Q02880)	Activity	%	0

For the compound COc1cc([C@@H]2c3cc4c(cc3[C@@H](O[C@@H]3O[C@@H]5CO[C@@H](C)O[C@H]5[C@H](O)[C@H]3O)[C@H]3COC(=O)[C@H]23)OCO4)cc(OC)c1O [ETOPOSIDE] , give its reported Activity.
23.9

----------
Target: DNA topoisomerase 2-beta (Homo sapiens)
Assay: Inhibition of human topoisomerase-2beta mediated decatenation at […] using kinetoplast DNA as substrate after 30 mins in presence of ATP by ethidium bromide staining-based gel electrophoresis method relative to control
Design: scale not given: the % may be the effect or the level left
property.measured: Activity (%)
API: value field is a number in %; no unit string.

Past entries and their recorded results:
compound	Activity (%)
O=c1nc(SCc2cc(F)cc(C(F)(F)F)c2)nc(SCc2ccccc2F)[nH]1	12.5
O=c1nc(SCc2cc(F)cc(C(F)(F)F)c2)nc(SCc2cccc(Cl)c2)[nH]1	0
COc1cc([C@@H]2c3cc4c(cc3[C@@H](O[C@@H]3O[C@@H]5CO[C@@H](C)O[C@H]5[C@H](O)[C@H]3O)[C@H]3COC(=O)[C@H]23)OCO4)cc(OC)c1O [ETOPOSIDE]	93.4

Report Activity on DNA topoisomerase 2-beta (Homo sapiens) for this entry: O=c1nc(SCc2ccc(C(F)(F)F)cc2)nc(SCc2ccccc2F)[nH]1
0
